- experimentSummary: Equilibrium solubility (17 hrs) of Form B and Form F in EtOH
- Assay type: physicochemical
- details: 50 °C, organic solvent or mixture, thermodynamic from solid, concentration of freebase in filtrate
valueKind: solubility at 17 hrs (µg/mL)
Quick reminder: number only, in µg/mL, skip the unit.

Exercise: Item C[C@@H]1Cc2c([nH]c3ccccc23)[C@@H](c2c(F)cc(NC3CN(CCCF)C3)cc2F)N1CC(F)(F)CO [Compound B Form B] has what recorded solubility at 17 hrs?
Key: 490

----------
- experimentSummary: Pharmacokinetics after single IV administration
- Format: in vivo, and monkeys
- details: rat, dog, monkey, in vivo, rats, dogs, monkeys, read-out: Terminal elimination half-life
Structures can show the parent of a compound that is named as a salt.
valueKind: half-life

Exercise: Item C[C@@H]1Cc2c([nH]c3ccccc23)[C@@H](c2c(F)cc(NC3CN(CCCF)C3)cc2F)N1CC(F)(F)CO [Compound B, tartrate] has what recorded half-life?
Key: 7 to 24 h
